# measurement notes: Inhibition of platelet aggregation using adenosine diphosphate (ADP) as activating agent in human platelet rich plasma (PRP)
pEC50: −log10 of the molar value.
property label: pEC50

Exercise: Fill blank: measured pEC50 of the compound O=C(O)CCCCOc1ccc2nc3[nH]c(=O)[nH]c3cc2c1 is ____.
Key: < 3.97

Exercise: Data request, read-out pEC50, for O=C(O)CCCCc1ccc2nc3[nH]c(=O)[nH]c3cc2c1
Key: < 3.95

Exercise: Looking for the measured pEC50 of O=c1[nH]c2cc3cc(OCCCc4nnn[nH]4)ccc3nc2[nH]1 , can you help?
Key: < 4.00

###

# measurement notes: Inhibition of platelet aggregation using Adenosine diphosphate (ADP) as activating agent in rabbit platelet rich plasma (PRP)
pEC50: −log10 of the molar value.
property label: pEC50

CCOC(=O)CCc1ccc2nc3[nH]c(=O)[nH]c3cc2c1    6.36

1: O=c1[nH]c2cc3cc(OCCCCc4nnn[nH]4)ccc3nc2[nH]1
2: CCOC(=O)C1CCN(C(=O)CCCOc2ccc3nc4[nH]c(=O)[nH]c4cc3c2)CC1
Exercise: Of the pair 1 and 2 , name the member with the lesser recorded pEC50. Answer format: the label of the selected item.
Key: 1

Reference for the values: BindingDB's records for doi:10.1021/jm00092a019
